assayed.system: Histone-lysine N-methyltransferase EHMT2 (Homo sapiens)
method: qHTS Assay for Inhibitors of Histone Lysine Methyltransferase G9a; further: nearly all actives have a fitted effect of over 75% in size; further: potency means the concentration at half of the fitted maximal effect
condition.summary: G9a H3K9 monomethylation, AlphaScreen, 2 h; series mostly up to 59 µM
Screen size: about 350,000 compounds; about 31,000 (8.9%) were called active. About 15% were inconclusive and are not listed. The full list was thinned out, with actives kept by preference.
measured.metric: Potency

CCc1ccc2oc(-c3ccc(NC(=O)c4cc5ccccc5o4)cc3)nc2c1
inactive
CSc1ccccc1N1CCN(CCCCCC(=O)NC2CCCc3ccccc32)CC1 (stereo not drawn)
21.2 µM (active)
COc1cc(C(=O)NCCc2csc3nc(-c4ccccc4C)nn23)cc(OC)c1OC
inactive

Provenance of the data: PubChem BioAssay AID504332
